Ref: ChEMBL document CHEMBL1772966

# assay info: Cytotoxicity against human HPC cells after 48 hrs
# Type: cell-based
Item-by-item account of CC50 at 48 h
Write the value in µM as a bare number.

Some solved entries appear below for comparison.
| molecule | units text | measured number |
| --- | --- | --- |
| COc1ccc(/C=C2\CN(C(=O)CCSCCO)C/C(=C\c3ccc(OC)cc3)C2=O)cc1 | µM | 14 |
| O=C1/C(=C/c2ccccc2)CN(C(=O)CCSCCO)C/C1=C\c1ccccc1 | µM | 14 |
| O=C1/C(=C/c2ccc([N+](=O)[O-])cc2)CN(C(=O)CCSCCO)C/C1=C\c1ccc([N+](=O)[O-])cc1 | µM | 5.8 |

I have this compound here, Cc1ccc(/C=C2\CN(C(=O)CCSCCO)C/C(=C\c3ccc(C)cc3)C2=O)cc1 , and I need its recorded CC50 at 48 h.
7.5

Moving on to O=C1/C(=C/c2ccc(Cl)cc2)CN(C(=O)CCSCCO)C/C1=C\c1ccc(Cl)cc1
7.2
